Listing of entries alongside the reported Population Normal (%).
# Test system: Fibroblast
# PROTOCOL NOTES: Multiplex assay against human fibroblast
# Assay type: toxicity, cell-based
# STUDY CONDITIONS: 24 h, 1 µM, compound concentration 1 uM, replicate 2
Reply with just the number (in %).

CCc1nn(CCCN2CCN(c3cccc(Cl)c3)CC2)c(=O)n1CCOc1ccccc1.Cl [NEFAZODONE HYDROCHLORIDE] : 97
O=c1[nH]c2ccccc2n1C1CCN(Cc2ccc(-c3[nH]c4cc5ncnc5cc4nc3-c3ccccc3)cc2)CC1 : 68

Qu. Item under review: "CNC(=O)Nc1ccc2c(c1)[C@@]1(CC2)OC(=O)N(CC(=O)N(Cc2ccc(F)cc2)[C@@H](C)C(F)(F)F)C1=O" . Reported Population Normal (%)?
Ans. 66

Where do the numbers come from? From ChEMBL document CHEMBL4689842.
